system: MCF7 breast; assay: NCI tumour cell line growth inhibition, 48 h
TGI values, listed per item

Examples with their reported TGI follow.
molecule="COC1(C(=O)N[C@@H](C)c2ccc(-n3cc(F)cn3)nc2)CCC(c2nc(C)cc(Nc3cc(C)[nH]n3)n2)CC1 (some centres not stated)" metric=TGI observed_value="14.6 µM"
molecule=Cc1ccc(S(=O)(=O)N2CCSCCSCCSCCSCC2)cc1 metric=TGI observed_value="> 100 µM"
molecule=CN(CCCN)CCCNc1nc2ccccc2c2[nH]c3ccccc3c12 metric=TGI observed_value="1.03 µM"

Kindly indicate its recorded TGI. Item: `O=C1c2ccccc2CN1c1ccc(O)cc1`
> 100 µM

Quick one: give measured TGI for CC(=O)OC(C)c1cc2c(s1)C(=O)c1sccc1C2=O (configuration not stated)
3.9 µM

State its TGI for this molecule: `COC(=O)/C=C/C=C(c1ccccc1)c1ccccc1`
> 100 µM

Name the recorded TGI of the molecule listed here: CC(C)(C)C[C@H]1NC(C(=O)NCC[C@H](O)CO)[C@H](c2cccc(Cl)c2)[C@@]12C(=O)Nc1cc(Cl)c(F)cc12 (some centres not stated)
11.7 µM

Identify TGI associated with the molecule COc1ccc(N2C(=O)c3c4c(c5c([nH]c6ncccc65)c3C2=O)CCC(C(C)(C)C)C4)cc1 (configuration not stated)
> 100 µM

Output TGI of `CC1(C)C(c2ccccc2)=[N+]([O-])C(C)(C)N1O`
> 10 µM

Look up TGI of `O=c1cc(/C=C/c2ccc(O)c(O)c2)oc(/C=C/c2ccc(O)c(O)c2)c1` and report it.
30.8 µM

Retrieve TGI measured for `CCN(CC)CCn1ccc(=O)c2cc3c(=O)ccn(CCN(CC)CC)c3c(C)c21` and print it.
> 100 µM

Identify measured TGI corresponding to `COc1ccc(Nc2nc3ccc(C(F)(F)F)cc3nc2C(=O)O)cc1OC`
> 100 µM

Fill in reported TGI for this entry: `C/C(N=Nc1nc2ccccc2s1)=C1/C=CC=CN1O`
60.5 µM

Item `Cc1sc(C(=O)Nc2cc(C(=O)NCCCN(C)C)n(C)c2)cc1NC(=O)CCCN1C(=O)c2cccc3cccc(c23)C1=O` : provide TGI
> 100 µM

Quote TGI reported for `CCCCOc1ccc(NC(N)=Nc2ccc(Cl)cc2)cc1` please.
4.2 µM

* * *

test system: MDA-MB-231 breast; test: NCI tumour cell line growth inhibition, 48 h; in the data active means GI50 below about 0.43 µM; inactive means the rest
Write down the outcome that applies. Available outcomes: T = active, F = inactive

Known results for molecules:
molecule=O=CNc1c(Cl)cc2c(c1Cl)Cc1cc([N+](=O)[O-])ccc1-2 assayed_target="MDA-MB-231 breast" label=F
molecule=COC(=O)[C@@H](C)C[C@H](Cc1ccccc1)NC(=O)c1nc([C@@H](C[C@H](C(C)C)N(C)C(=O)[C@@H](NC(=O)[C@H]2CCCCN2C)C(C)C)OC(C)=O)sc1C assayed_target="MDA-MB-231 breast" label=T
molecule=CNC(=O)c1cncc(/C=C/c2ccccc2C)c1 assayed_target="MDA-MB-231 breast" label=F

Shifting focus to the molecule that follows.
Status in this test for COC1(C(=O)N[C@@H](C)c2ccc(-n3cc(F)cn3)nc2)CCC(c2nc(C)cc(Nc3cc(C)[nH]n3)n2)CC1 (some centres undefined) ?
F

* * *

Below, each entry is listed with its recorded TGI.
tested on: UO-31 renal; assay: NCI tumour cell line growth inhibition, 48 h

Solved entries:
molecule=C/C(N=Nc1nc2ccccc2s1)=C1/C=CC=CN1O observed_value="> 100 µM"
molecule="CC/C=C\\C=C/C(=O)N/C=C/CC1Cc2cccc(O)c2C(=O)O1 (stereo not given)" observed_value="> 100 µM"
molecule="CN(C)C(CN)CC1=C(CC(CN)N(C)C)CCC1 (stereo not given)" observed_value="> 100 µM"
molecule=Nc1nn2c(C(Br)Br)cc(C(Br)Br)nc2c1[N+](=O)[O-] observed_value="2.5 µM"
molecule=Nc1c2ccccc2nc2c1ccc1ncccc12 observed_value="40.2 µM"

Read off the recorded TGI for CC(=O)OC[C@]1(C(=O)C(O)c2ccoc2)[C@H](C)CC[C@@]23COC(=O)C2=CCC[C@@H]31 (stereo not given in full)
> 10 µM

Provide measured TGI value, entry: O=C(c1ccccc1)C1N=NCC1c1ccc([N+](=O)[O-])cc1 (stereo not given)
> 100 µM

Return the recorded TGI value; entry: `COCCN1C2=CCCCC2=Nc2c1nc(N)[nH]c2=O`
> 100 µM

For the molecule `Cc1ccncc1.[O]=[Ge].[O]=[Ge].[O]=[Ge].[O]=[Ge].[O]=[Ge].[O]=[Ge][OH].[O]=[Ge][OH]` , report TGI.
> 100 µM

For the molecule CCC1=CCC23C(=O)C=CC(=O)C2(C1)C(=O)c1cccc(OC)c1C3=O (stereo not given) , report TGI.
22.7 µM

Quickly give me recorded TGI for `COc1ccc2nc3cc([N+](=O)[O-])ccc3c(NCCCCCN(C)C)c2c1`
3.63 µM

Determine from records and report TGI for Cc1cc(C)c2c(=O)n(CN3CC4Nc5ccccc5C4C3)sc2n1 (stereo not given)
32.5 µM

Specify measured TGI for `O=C(CN1CCCCC1)CC(O)(C(F)(F)F)C(F)(F)F` .
> 100 µM

* * *

// reported TGI for each item listed
system: OVCAR-4 ovarian; assay: NCI tumour cell line growth inhibition, 48 h

compound=Cc1c(C(=O)/C=C/c2csc3ccccc23)[n+](=O)c2ccccc2n1[O-] observed_value="4.83 µM"
compound="CC1SC(c2c(Cl)cccc2Cl)N(NC(=O)c2[nH]c3ccc(F)cc3c2-c2ccccc2)C1=O (stereo unspecified)" observed_value="3.4 µM"
compound=O=C1/C(=C/c2ccccc2S)N=C(c2ccccc2)N1c1nc2ccc(Sc3ccccc3)cc2[nH]1 observed_value="> 100 µM"
compound=COc1ccc2c(c1)O/C(=C\c1cccc(OCC(=O)Nc3nc4c(s3)CCCC4)c1)C2=O observed_value="> 100 µM"
compound="C=C(Cl)/C(=C\\Cl)CCC(Br)C(C)C (stereo unspecified)" observed_value="95.5 µM"
compound=COC(=O)[C@@H](C)C[C@H](Cc1ccccc1)NC(=O)c1nc([C@@H](C[C@H](C(C)C)N(C)C(=O)[C@@H](NC(=O)[C@H]2CCCCN2C)C(C)C)OC(C)=O)sc1C observed_value="> 16.7 µM"
compound=C1CCSCCCCSCCCCSCCCCSC1 observed_value="> 100 µM"
compound=Cc1cn2c(/C=C3/C(=O)Nc4cccc(Cl)c43)c(Cl)nc2s1 observed_value="> 100 µM"
compound=Cc1ccc(S(=O)(=O)Oc2cc(N)c3c(n2)CCC3)cc1 observed_value="> 100 µM"
compound=CCCN=Cc1cc(Cc2ccc(O)c(C=NCCC)c2)ccc1O observed_value="86.1 µM"

Provide only the value of recorded TGI for `CNC(=O)c1cncc(/C=C/c2ccccc2C)c1`
> 25 µM

Determine its reported TGI: `C[n+]1c(-c2ccccc2)cc2/c(=C\c3ccc([N+](=O)[O-])cc3)c3ccccc3n21`
> 100 µM

Give TGI for the following compound: COc1ccc(N2C(C)=C(C#N)C34C(=O)N(c5ccccc5)C(=O)C3=C(O)C=CC24O)cc1 (stereo unspecified)
94.5 µM

Respond only with TGI recorded for `O=C1NCCCc2nonc21`
> 100 µM

Return TGI (reported value) for this compound: `CCC[C@H]1C(=O)N=C(N)N1C(=O)OCc1ccccc1`
> 100 µM

Answer with the recorded TGI for the compound listed here: `CN(C)NC(=S)Nc1ccccc1Br`
> 100 µM

Identify measured TGI associated with `O=C1CCSSCCC(=O)NCCN1`
> 100 µM

// Input: `CCN(CC)CCOC(NC(C)=O)(c1ccccc1)c1ccccc1` . Output its TGI only.
> 100 µM

Determine from records and report TGI for `Nn1c(CCCCCCCCc2nnc(COc3c(O)ccc4ccccc34)n2N)nnc1COc1c(O)ccc2ccccc12`
> 100 µM

Tell me measured TGI for `CCOC(=O)C1=C(C)N(Cc2ccccc2)C(C)=C(C(=O)OCC)C1c1ccccc1O` please.
> 100 µM

Retrieve TGI measured for CC(C)(C)OC(=O)C#CC[C@H]1CCCC1/C=C/C(O)=C1/C(=O)NC(CCCNC(=O)OC(C)(C)C)C1=O (stereo partly specified) and print it.
94.1 µM

* * *

tested on: SN12K1 renal; test: NCI tumour cell line growth inhibition, 48 h
metric: TGI

Please give the documented TGI of `COc1cc(/C=C/C(=O)O)ccc1C(=O)O/C=C/c1ccccc1`
> 100 µM

Identify TGI associated with the molecule `COCOc1ccc(OC)cc1`
> 100 µM

Hello, please tell me recorded TGI for this one: `CCOC(=O)C1=C(C(C)=O)CSC(c2ccccc2)=N1`
> 100 µM

Identify the reported TGI for the following entry. CN(C)C(CN)CC1=C(CC(CN)N(C)C)CCC1 (stereo not given)
> 100 µM

// Input: `C/C(=C\c1ccccc1)C(=O)CCN1CCOCC1` . Output its TGI only.
32.8 µM

Origin of values: PubChem BioAssay (NCI)
